Please provide measured EC50 for the entries that follow.
# System: Human immunodeficiency virus 1
# EXPERIMENT: Antiviral activity against HIV1 3B
# Type: functional, organism-based
# RUN CONDITIONS: Human immunodeficiency virus 1, 3B

Req: Quick check: EC50 of Cn1cc(C(=O)O)c(=O)c2ccc(N3CCN(c4nccs4)CC3)nc21 ?
Resp: 3.15 µg/mL

Req: Need EC50 of Cn1cc(C(=O)O)c(=O)c2ccc(N3CCN(c4ccccn4)CC3)nc21 , thanks.
Resp: 0.62 µg/mL

Req: Consider the compound shown here: Cn1cc(C(=O)O)c(=O)c2ccc(N3CCN(c4cccc(C(F)(F)F)c4)CC3)nc21 What is its recorded EC50?
Resp: > 0.41 µg/mL

Req: // returns reported EC50 for input Cn1cc(C(=O)O)c(=O)c2ccc(N3CCN(c4nc5ccccc5s4)CC3)nc21
Resp: 0.03 µg/mL

====

# EXPERIMENT: Inhibition of HIV-2 ROD9 integrase G140S mutant
# Design: species or system Human immunodeficiency virus 2
ENDPOINT LABEL: EC50 (nM)
Answer format: numeric, nM implied, no suffix.

Req: Any idea what EC50 was measured for C[C@@H]1CCO[C@H]2Cn3cc(C(=O)NCc4ccc(F)cc4F)c(=O)c(O)c3C(=O)N12 [DOLUTEGRAVIR] ?
Resp: 3.2

====

Can you tell me selectivity ratio for the items I'm about to list?
# EXPERIMENT: Selectivity index, ratio of CC50 for human C8166 cells to EC50 for HIV1 3B infected in human C8166 cells
# Assay type: toxicity, cell-based
# RUN CONDITIONS: read-out: Selectivity Index
The response must contain the number and no unit.

Req: Returns the measured selectivity ratio for the input compound. Input: COc1ccc2c(c1)CCCN2CCC(=O)N1CCN(c2ccccc2)CC1
Resp: 5.9

Req: Can you look up the measured selectivity ratio of COc1ccc2c(c1)CCCN2CCC(=O)N1CCN(c2ccccc2C)CC1 for me?
Resp: 24.2

Req: Returns the measured selectivity ratio for the input compound. Input: COc1ccc2c(c1)CCCN2CCC(=O)N1CCN(c2cccc(Cl)c2)CC1
Resp: 5.3

Req: Endpoint output: selectivity ratio of CCc1c(CC2CCCCC2)nc(SCC(=O)c2ccccc2)[nH]c1=O . Value?
Resp: 6.32e+06

====

For each entry below, report its pEC50 value.
# Test system: Human immunodeficiency virus 1
# EXPERIMENT: Antiviral activity against HIV1
# Format: functional, organism-based
// pEC50: -log10(molar conc.)

Req: // returns reported pEC50 for input Cn1ccc2c1S(=O)(=O)c1ccccc1NC2=O
Resp: 4.85

Req: Recorded pEC50 for CC(C)(NC(=O)OCc1ccccc1)c1cc(O)c(O)c(C(=O)NCc2ccccc2Cl)c1 , please?
Resp: 6.85

Req: Value lookup for pEC50; key = COc1ccc(CNC(=O)c2cc(C(C)(C)NC(=O)OCc3ccccc3)cc(O)c2O)cc1
Resp: 6.82

Req: Need pEC50 of O=C(N[C@H]1C(=O)Nc2ccccc2C2CCCN21)OCc1ccccc1 (some centres undefined) , thanks.
Resp: 6.07

====

# EXPERIMENT: Inhibition of HIV-2 ROD9 integrase Y143C mutant
# Set-up: species or system Human immunodeficiency virus 2
ENDPOINT LABEL: pEC50
Answer as the number alone; pEC50 is minus log10 of concentration in mol/L.

Req: Using the record for C[C@@H]1CCO[C@H]2Cn3cc(C(=O)NCc4ccc(F)cc4F)c(=O)c(O)c3C(=O)N12 , report its pEC50.
Resp: 8.11

Ref: ChEMBL document CHEMBL4402520
